The reported measurements were obtained from PubChem BioAssay (NCATS).

# method.description: Cell Viability qHTS for small molecule stabilizers of the endoplasmic reticulum resident proteome (AID 1508629);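 also: human SH-SY5Y neuroblastoma cells carrying the GLuc-SERCaMP reporter; compound exposure about 46 h in total before the viability read; % is scaled to controls: 0 for no effect and ±100 for the full control effect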
# test.settings: cell viability counter-screen, 100 nM thapsigargin for final 4 h
Results filed as inconclusive are left out.
Listed compounds paired with reported max response
Reply numerically in %, unit not repeated.

Answered cases to consult:
>  <compound>
CN1CCC(=C2c3ccccc3CCc3cccnc32)CC1

>  <metric.name>
max response

>  <assay.value>
12.6

$$$$
>  <compound>
CCC(=O)O[C@H]1[C@H](O[C@@H]2[C@@H](C)[C@H](O[C@H]3C[C@@](C)(OC)[C@@H](O)[C@H](C)O3)[C@@H](C)C(=O)O[C@H](CC)[C@@](C)(O)[C@H](O)[C@@H](C)C(=O)[C@H](C)C[C@@]2(C)O)O[C@H](C)C[C@@H]1N(C)C

>  <metric.name>
max response

>  <assay.value>
17.4

$$$$
>  <compound>
COC(=O)c1c(Cl)c(Cl)c(C(=O)OC)c(Cl)c1Cl

>  <metric.name>
max response

>  <assay.value>
10.1

$$$$
>  <compound>
C[C@H](N)C(=O)N[C@@H](C)C(=O)NC1[C@H]2CN(c3nc4c(cc3F)c(=O)c(C(=O)O)cn4-c3ccc(F)cc3F)C[C@@H]12 (stereo partly specified)

>  <metric.name>
max response

>  <assay.value>
-5.88

$$$$

Query: Give the value of max response reported for the following: CC(C)C[C@@H]1[C@H](c2ccccc2)OC(=O)N1CCCN1CCCCCC1
Reply: -0.48

Query: Give the value of max response reported for the following: CC(C)OC(=O)c1cc2c(OCC(O)CNC(C)(C)C)cccc2[nH]1 (stereo unspecified)
Reply: -12.8

Query: Give the value of max response reported for the following: N[C@@H](Cc1cc(I)c(O)c(I)c1)C(=O)O
Reply: 10.7
